# %Inh listing for each entry below
test system: FGFR1; conditions: concentration: 1 μM, replicates: in singlicate; n = 1;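 also: KINOMEscan kinase panel screen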
observable: %Inh (%)

[[record]]
compound = "CC1=C(C(=O)Nc2cc3cn[nH]c3cc2F)C(c2ccc(C(F)(F)F)cc2)CC(=O)N1 (stereo not drawn)"
measured_number = 0

[[record]]
compound = "COc1ccc(C2=C(Nc3cccc(C(=O)O)c3)C(=O)NC2=O)cc1"
measured_number = 13

[[record]]
compound = "Cn1ccc2ncnc(Oc3ccc(NC(=O)Nc4ccccc4)cc3)c21"
measured_number = 14


====

system: CDK3; conditions: concentration: 1 μM, replicates: in singlicate; n = 1
Mark each entry True if its %Inh sits below 7%, and False for all others.

[[record]]
compound = "O=C(Nc1ccc2c(c1)OCO2)NC1CCN(c2ccnc(Nc3ccc(F)cc3)n2)C1 (stereo not drawn)"
assigned_category = "False"

[[record]]
compound = "Cc1cc(N2Cc3ccccc3C2)nc(Nc2ccc(S(=O)(=O)N3CCOCC3)cc2)n1.Cl"
assigned_category = "True"

[[record]]
compound = "O=C(Nc1n[nH]c2nc(-c3nccs3)c(Br)cc12)C1CCCC1"
assigned_category = "False"

[[record]]
compound = "Cc1cc(-c2ccc3c(c2)CC[C@@H](N[C@@H](C)c2ccccc2)C3)cnc1N.Cl"
assigned_category = "True"

[[record]]
compound = "Cc1ccccc1-n1cnc2c(N)ncnc21"
assigned_category = "True"

[[record]]
compound = "Cn1ccc2ncnc(Oc3ccc(NC(=O)Nc4ccccc4)cc3)c21"
assigned_category = "False"

[[record]]
compound = "COc1cccc(NC(=O)NC2CCN(c3ccnc(Nc4ccc(F)cc4)n3)C2)c1 (stereo not drawn)"
assigned_category = "False"

[[record]]
compound = "O=C(Nc1ccccc1)Nc1cccc(Oc2ccc3nccn3n2)c1"
assigned_category = "False"

